Settings: buffer; pH 7.4; 200.0 µM
Items are presented alongside their recorded solubility kinetic.
Report the figure in µg/mL without appending any unit label.

COC(=O)c1cccc(NC(=O)CN2C(=O)c3ccccc3C2=O)c1 = 21.3
O=c1c2ccccc2ncn1-c1ccccc1[N+](=O)[O-] = 35.9
CCN(Cc1ccccc1)C1CCN(Cc2ccccc2)CC1 = 34.2

Consider the compound shown here: `O=C(Cc1ccc(F)cc1)OCN1C(=O)c2ccccc2C1=O` What is its recorded solubility kinetic?
39.8

Consider the compound shown here: `CN1CCN(S(=O)(=O)c2ccc(Cl)cc2)CC1` What is its recorded solubility kinetic?
37.8

Consider the compound shown here: `O=S(=O)(NCCC1=CCCCC1)c1ccccc1Cl` What is its recorded solubility kinetic?
22

Consider the compound shown here: `O=C(Cc1ccccc1)Nc1ccc(NC(=O)c2ccccc2)c(Cl)c1` What is its recorded solubility kinetic?
2.3

---

Details: buffer; pH 7.4; 200.0 µM
VALUE TYPE: solubility kinetic

CC(=O)Nc1c2c(nn1-c1ccc(C)cc1)CS(=O)(=O)C2 = > 45.8 µg/mL
Cc1cc(NC(=O)c2coc(=O)c(Br)c2)ccc1C(C)C = 2.5 µg/mL

Consider the compound shown here: `CCOC(=O)C1CCN(C(=O)c2cc3c(C)cc(C)cc3[nH]2)CC1` What is its recorded solubility kinetic?
7.7 µg/mL

Consider the compound shown here: CC(NC(=O)Nc1ccccc1Cl)c1ccc2c(c1)OCO2 (configuration not stated) What is its recorded solubility kinetic?
< 0.3 µg/mL

Consider the compound shown here: `CSc1nccc(-c2sc(SC)c(C#N)c2-c2ccccc2)n1` What is its recorded solubility kinetic?
< 0.3 µg/mL

Consider the compound shown here: `O=C(NCCc1ccc(Cl)cc1)c1cc(=O)[nH]c2ccccc12` What is its recorded solubility kinetic?
2.4 µg/mL

Consider the compound shown here: `COc1ccc(S(=O)(=O)N2CCN(c3ccccn3)CC2)c(OC)c1` What is its recorded solubility kinetic?
52.1 µg/mL

Consider the compound shown here: `N/C(=N\C(=S)Nc1ccccc1)c1ccccc1` What is its recorded solubility kinetic?
> 38.3 µg/mL

Consider the compound shown here: `O=S1(=O)CCN(OCc2ccc(Cl)cc2)CC1` What is its recorded solubility kinetic?
> 41.4 µg/mL

Consider the compound shown here: `CNc1nc(C23CC4CC(CC(C4)C2)C3)cs1` What is its recorded solubility kinetic?
13 µg/mL

Consider the compound shown here: `CCSc1nsc(NC(=O)Nc2cccc(C(C)=O)c2)n1` What is its recorded solubility kinetic?
1.6 µg/mL

Consider the compound shown here: `Cc1cccc(C(=O)Nc2ccnc(-c3cccnc3)n2)c1` What is its recorded solubility kinetic?
5.4 µg/mL

---

Items are presented alongside their recorded solubility kinetic.
Details: buffer; pH 7.4; 200.0 µM
Report the figure in µg/mL without appending any unit label.

Sample answers from the record:
Cc1cc(NC(=O)c2cc([N+](=O)[O-])cc([N+](=O)[O-])c2)no1 = 9.8
O=C(COc1cccnc1[N+](=O)[O-])N1CCC(Cc2ccccc2)CC1 = 51.9
OCC(CO)(CO)NC(=S)Nc1cc(Cl)cc(Cl)c1 = 46.7
Cc1ccc(CONC(=O)c2ccc(Cl)cc2)cc1 = 2
Cc1ccc(C(=O)OCC(=O)N2CCCCCC2)c(O)c1 = 14

Consider the compound shown here: `COc1ccc(NC(=O)COC(=O)c2ccc3c(c2)OCO3)c(OC)c1` What is its recorded solubility kinetic?
1.9

Consider the compound shown here: CC(=O)C1C(c2ccc(C)cc2)c2c(noc2C)CC1(C)O (configuration not stated) What is its recorded solubility kinetic?
42.2

Consider the compound shown here: `COc1ccccc1/C=C/c1ccc2cccc(O)c2n1` What is its recorded solubility kinetic?
11.2

Consider the compound shown here: `CNC(=O)c1ccccc1Sc1ccccc1CO` What is its recorded solubility kinetic?
40.3

Origin of measurements: PubChem BioAssay AID1996
